# Tested on: BT-549 breast
# experiment: NCI tumour cell line growth inhibition, 48 h
endpoint: TGI (µM)
Answer with a number only, understood to be in µM.

Quick check: TGI of `N=c1c2ccccc2nc2oc3cc([N+](=O)[O-])ccc3n12` ?
91.6

----------
# System: M14 melanoma
# experiment: NCI tumour cell line growth inhibition, 48 h
TGI: recorded values

Sample answers from the record:
compound	endpoint	reported.result
O=C(Nc1ccc(Cl)cc1)c1cc(-c2ccc(F)cc2)c2sc(=O)[nH]c2n1	TGI	5.13 µM
c1ccc(C2=NNC3c4ccccc4-c4ccccc4N3C2)cc1 (centres undefined)	TGI	> 100 µM
CCS(=O)(=O)c1ccc(OC)c(Nc2ncc(-c3cccc(C(C)=O)c3)o2)c1	TGI	> 25 µM
CC1(n2nc(-c3ccccc3)n(-c3ccccc3)c2=O)CSC1	TGI	> 100 µM
Cc1nc(N)c(N2CCN(S(N)(=O)=O)CC2)c(=O)[nH]1	TGI	> 100 µM

Hi! What's the reported TGI for Cc1cc(S(=O)(=O)Nc2nc(N)nc(N3N=CCC3C)n2)c(SCC(=O)O)cc1Cl (centres undefined) on M14 melanoma?
> 10 µM

Hi! What's the reported TGI for `Cc1ccc(N(C(=O)CC(=O)NN)C(=O)c2ccccc2Cl)cc1` on M14 melanoma?
> 100 µM

Hi! What's the reported TGI for `O=C(CCl)Nc1ccc(Cl)cc1` on M14 melanoma?
17 µM

Hi! What's the reported TGI for `CC/C=C\C[C@@H]1C/C=C2/C(=O)C=C[C@H]2C/C=C\CCCC(=O)O1` on M14 melanoma?
1.03 µM

Hi! What's the reported TGI for CC(=O)OCC(OC(C)=O)C1C[C@H]2O[C@@H]3[C@H](C[C@H]2O1)O[C@@]1(C[C@@H]3C)C[C@H](C)[C@@H]2O[C@]3(C[C@@H]2O1)C[C@H]1O[C@H]2[C@H](C)[C@H]4OC(=O)C[C@H]5CC[C@@H]6OC7[C@H]8O[C@]9(CC[C@H]%10CC(=O)[C@H](CC[C@H]%11C[C@@H](C)C(=O)C(C[C@@H]4O[C@H]2C[C@H]1O3)O%11)O%10)CC8O[C@@H]7[C@@H](O9)[C@H]6O5 (some centres undefined) on M14 melanoma?
> 1 µM

Hi! What's the reported TGI for CCCCCCCCCCCCCC1CCC(CC)N1 (centres undefined) on M14 melanoma?
31.8 µM

Hi! What's the reported TGI for O=C(O)CP(=S)(S)c1ccccc1 (centres undefined) on M14 melanoma?
> 100 µM
